All values here come from patent US11713335B2.

Tested on: E. coli MC4100
Assay: Minimal inhibitory concentration, E. coli MC4100
Format: cell-based
Details: 16 hour minimal inhibitory concentration at 37° C.; read-out: MIC (μM) E. coli MC4100 ara+
Quick list: MIC per entry.

Example compounds with recorded MIC:
CO[C@@H]1[C@@H](OC(N)=O)[C@@H](O)[C@H](Oc2ccc3c(O)c(NC(=O)C45CC6CC(CC(F)(C6)C4)C5)c(=O)oc3c2C)OC1(C)C ... >200 µM
CO[C@@H]1[C@@H](OC(N)=O)[C@@H](O)[C@H](Oc2ccc3c(O)c(NC(=O)c4ccccc4)c(=O)oc3c2C)OC1(C)C ... >200 µM
CO[C@@H]1[C@@H](OC(N)=O)[C@@H](O)[C@H](Oc2ccc3c(O)c(NC(=O)c4cc5ccccc5[nH]4)c(=O)oc3c2C)OC1(C)C ... >200 µM
CCNC(=O)O[C@H]1[C@H](Oc2ccc3c(O)c(NC(=O)c4ccc(O)c(CC=C(C)C)c4)c(=O)oc3c2C)OC(C)(C)[C@H](OC)[C@H]1O ... >200 µM
CO[C@@H]1[C@@H](OC(N)=O)[C@@H](O)[C@H](Oc2ccc3c(O)c(NC(=O)c4ccc(O)c(CC(N)=O)c4)c(=O)oc3c2C)OC1(C)C ... >200 µM

Let's switch to this compound now.
The measured MIC associated with CO[C@@H]1[C@@H](OC(N)=O)[C@@H](O)[C@H](Oc2ccc3c(O)c(NC(=O)c4cc(O)cc(-c5ccccc5)c4)c(=O)oc3c2C)OC1(C)C reads 59 µM

* * *

Tested on: S. aureus MW2
Test: Minimal inhibitory concentration, S. aureus MW2
Assay type: cell-based
Settings: 16 hour minimal inhibitory concentration at 37° C.; read-out: MIC (μM) S. aureus MW2 (MRSA)
MEASURED_ENDPOINT: MIC (µM)
Dear colleague, please return just the value in µM, with no unit written.

CO[C@@H]1[C@@H](OC(N)=O)[C@@H](O)[C@H](Oc2ccc3c(O)c(NC(=O)c4cccc(-c5cccc(C(F)(F)F)c5)c4)c(=O)oc3c2C)OC1(C)C ... 0.46
CO[C@@H]1[C@@H](OC(N)=O)[C@@H](O)[C@H](Oc2ccc3c(O)c(NC(=O)c4ccc5ccn(C)c5c4)c(=O)oc3c2C)OC1(C)C.Cl ... 41
CO[C@@H]1[C@@H](OC(N)=O)[C@@H](O)[C@H](Oc2ccc3c(O)c(NC(=O)c4ccc(O)c(-c5ccccc5)c4)c(=O)oc3c2C)OC1(C)C ... 2.5
CO[C@@H]1[C@@H](OC(N)=O)[C@@H](O)[C@H](Oc2ccc3c(O)c(NC(=O)c4cc(N)cc(-c5ccccc5)c4)c(=O)oc3c2C)OC1(C)C ... 10
CCCNC(=O)O[C@H]1[C@H](Oc2ccc3c(O)c(NC(=O)c4ccc(O)c(CC=C(C)C)c4)c(=O)oc3c2C)OC(C)(C)[C@H](OC)[C@H]1O ... 1.53
CCc1ccc(-c2cccc(C(=O)Nc3c(O)c4ccc(O[C@@H]5OC(C)(C)[C@H](OC)[C@@H](OC(N)=O)[C@H]5O)c(C)c4oc3=O)c2)cc1 ... 0.99
CO[C@@H]1[C@@H](OC(N)=O)[C@@H](O)[C@H](Oc2ccc3c(O)c(NC(=O)c4ccc5ccn(C)c5c4)c(=O)oc3c2C)OC1(C)C ... 43
CO[C@@H]1[C@@H](OC(N)=O)[C@@H](O)[C@H](Oc2ccc3c(O)c(NC(=O)c4cccc(-c5ccc6ccccc6c5)c4)c(=O)oc3c2C)OC1(C)C ... 0.1
CO[C@@H]1[C@@H](O)[C@@H](OC(=O)NC2CCCC2)[C@H](Oc2ccc3c(O)c(NC(=O)c4ccc(O)c(CC=C(C)C)c4)c(=O)oc3c2C)OC1(C)C ... 73
CO[C@@H]1[C@@H](OC(N)=O)[C@@H](O)[C@H](Oc2ccc3c(O)c(NC(=O)c4cccc(-c5ccc(C(F)(F)F)cc5)c4)c(=O)oc3c2C)OC1(C)C ... 0.93

The measured MIC associated with CO[C@@H]1[C@@H](OC(N)=O)[C@@H](O)[C@H](Oc2ccc3c(O)c(NC(=O)c4cc(-c5ccccc5)cc(-c5ccccc5)c4)c(=O)oc3c2C)OC1(C)C reads 9

The measured MIC associated with CO[C@@H]1[C@@H](OC(N)=O)[C@@H](O)[C@H](Oc2ccc3c(O)c(NC(=O)c4cc(-c5ccc(F)cc5)cc(O)c4O)c(=O)oc3c2C)OC1(C)C reads 38

The measured MIC associated with CO[C@@H]1[C@@H](OC(N)=O)[C@@H](O)[C@H](Oc2ccc3c(O)c(NC(=O)c4cccc(-c5ccccc5OC(F)(F)F)c4)c(=O)oc3c2C)OC1(C)C reads 5

The measured MIC associated with CO[C@@H]1[C@@H](OC(N)=O)[C@@H](O)[C@H](Oc2ccc3c(O)c(NC(=O)c4cccc(-c5ccccc5N)c4)c(=O)oc3c2C)OC1(C)C reads 40

The measured MIC associated with CO[C@@H]1[C@@H](OC(N)=O)[C@@H](O)[C@H](Oc2ccc3c(O)c(NC(=O)c4ccc(Oc5ccccc5)cc4)c(=O)oc3c2C)OC1(C)C reads 40

The measured MIC associated with CO[C@@H]1[C@@H](OC(N)=O)[C@@H](O)[C@H](Oc2ccc3c(O)c(NC(=O)c4ccc(O)c(-c5ccc(F)cc5)c4)c(=O)oc3c2C)OC1(C)C reads 0.98

The measured MIC associated with CO[C@@H]1[C@@H](OC(N)=O)[C@@H](O)[C@H](Oc2ccc3c(O)c(NC(=O)c4cc(-c5ccc(F)cc5)c(O)cc4O)c(=O)oc3c2C)OC1(C)C reads 5

The measured MIC associated with CO[C@@H]1[C@@H](O)[C@@H](OC(=O)c2cccn2C)[C@H](Oc2ccc3c(O)c(NC(=O)c4ccc(O)c(CC=C(C)C)c4)c(=O)oc3c2C)OC1(C)C reads 74

The measured MIC associated with CO[C@@H]1[C@@H](OC(N)=O)[C@@H](O)[C@H](Oc2ccc3c(O)c(NC(=O)c4ccc5c(ccn5C)c4)c(=O)oc3c2C)OC1(C)C.Cl reads 81

The measured MIC associated with CO[C@@H]1[C@@H](OC(N)=O)[C@@H](O)[C@H](Oc2ccc3c(O)c(NC(=O)C45CC6CC(CC(F)(C6)C4)C5)c(=O)oc3c2C)OC1(C)C reads 41

* * *

Test system: S. aureus MW2
Experiment: Minimal inhibitory concentration, S. aureus MW2
Type: cell-based
Details: Staphylococcus aureus, MRSA, 16 h, 16 hour minimal inhibitory concentration at 37° C.; read-out: MIC (μM) S. aureus MW2 (MRSA)
MEASURED_ENDPOINT: MIC (µM)
Dear colleague, please return just the value in µM, with no unit written.

Example compounds with recorded MIC:
CO[C@@H]1[C@@H](OC(N)=O)[C@@H](O)[C@H](Oc2ccc3c(O)c(NC(=O)c4ccc5ccccc5c4)c(=O)oc3c2C)OC1(C)C ... 22
CO[C@@H]1[C@@H](OC(N)=O)[C@@H](O)[C@H](Oc2ccc3c(O)c(NC(=O)c4ccc(F)c(Oc5ccccc5)c4)c(=O)oc3c2C)OC1(C)C ... 10
CO[C@@H]1[C@@H](OC(N)=O)[C@@H](O)[C@H](Oc2ccc3c(OCC4CO4)c(NC(=O)c4ccc(O)c(CC=C(C)C)c4)c(=O)oc3c2C)OC1(C)C (some centres unmarked) ... 9
CO[C@@H]1[C@@H](OC(N)=O)[C@@H](O)[C@H](Oc2ccc3c(O)c(NC(=O)c4ccc(I)c(Oc5ccccc5)c4)c(=O)oc3c2C)OC1(C)C ... 2

Let's switch to this compound now.
The measured MIC associated with CO[C@@H]1[C@@H](OC(=O)Nc2ccccc2)[C@@H](O)[C@H](Oc2ccc3c(O)c(NC(=O)c4cccc(-c5ccc6ccccc6c5)c4)c(=O)oc3c2C)OC1(C)C reads 9

* * *

Tested on: S. aureus MW2
Experiment: Minimal inhibitory concentration, S. aureus MW2
Assay type: cell-based
Conditions: Staphylococcus aureus, MRSA, 16 h, 16 hour minimal inhibitory concentration at 37° C.; read-out: MIC (μM) S. aureus MW2 (MRSA)
Quick list: MIC per entry.
Dear colleague, please return just the value in µM, with no unit written.

Example compounds with recorded MIC:
CO[C@@H]1[C@@H](OC(N)=O)[C@@H](O)[C@H](Oc2ccc3c(O)c(NC(=O)c4ccc([N+](=O)[O-])c(Oc5ccccc5)c4)c(=O)oc3c2C)OC1(C)C ... 38
CO[C@@H]1[C@@H](OC(N)=O)[C@@H](O)[C@H](Oc2ccc3c(O)c(NC(=O)c4ccc(C(=O)c5ccccc5)cc4)c(=O)oc3c2C)OC1(C)C ... 40
CO[C@@H]1[C@@H](OC(N)=O)[C@@H](O)[C@H](Oc2ccc3c(O)c(NC(=O)c4cccc(-c5cccs5)c4)c(=O)oc3c2C)OC1(C)C ... 10
CO[C@@H]1[C@@H](OC(N)=O)[C@@H](O)[C@H](Oc2ccc3c(O)c(NC(=O)c4cc(C)oc4C)c(=O)oc3c2C)OC1(C)C ... 91
CO[C@@H]1[C@@H](OC(N)=O)[C@@H](O)[C@H](Oc2ccc3c(O)c(NC(=O)c4cccc(Nc5ccccc5)c4)c(=O)oc3c2C)OC1(C)C ... 10

The measured MIC associated with C#Cc1ccc(C(=O)Nc2c(O)c3ccc(O[C@@H]4OC(C)(C)[C@H](OC)[C@@H](OC(N)=O)[C@H]4O)c(C)c3oc2=O)cc1Oc1ccccc1 reads 5

The measured MIC associated with COc1cccc(Oc2cccc(C(=O)Nc3c(O)c4ccc(O[C@@H]5OC(C)(C)[C@H](OC)[C@@H](OC(N)=O)[C@H]5O)c(C)c4oc3=O)c2)c1 reads 19.2

The measured MIC associated with CO[C@@H]1[C@@H](OC(N)=O)[C@@H](O)[C@H](Oc2ccc3c(O)c(NC(=O)c4cccc(Oc5cccc(C(F)(F)F)c5)c4)c(=O)oc3c2C)OC1(C)C reads 9.08
